# SYSTEM_UNDER_TEST: Dual specificity mitogen-activated protein kinase kinase 7 (Homo sapiens) (UniProt O14733)
# Sequence (O14733 whole entry): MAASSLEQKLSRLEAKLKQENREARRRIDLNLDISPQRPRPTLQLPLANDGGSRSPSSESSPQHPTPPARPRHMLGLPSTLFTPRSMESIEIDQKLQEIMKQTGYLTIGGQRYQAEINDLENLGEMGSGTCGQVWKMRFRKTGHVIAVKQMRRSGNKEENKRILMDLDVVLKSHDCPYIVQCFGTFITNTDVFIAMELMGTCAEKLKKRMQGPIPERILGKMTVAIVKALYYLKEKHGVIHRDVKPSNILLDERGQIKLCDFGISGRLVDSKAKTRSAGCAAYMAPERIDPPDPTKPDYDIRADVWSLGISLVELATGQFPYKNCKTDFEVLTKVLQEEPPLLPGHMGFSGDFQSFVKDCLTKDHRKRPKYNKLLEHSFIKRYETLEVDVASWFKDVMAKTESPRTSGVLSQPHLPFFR
# PROCEDURE_SUMMARY: Binding affinity to MKK7 (unknown origin) expressed in HEK293 cells assessed as dissociation constant at <30 uM by kinomescan method
# Type: cell-based
Activity calls are given as the source filed them. No cut-off for these calls is given here.
ATTRIBUTE_MEASURED: inhibition

// below: answered molecules
[
  {
    "COMPOUND_STRUCTURE_STRING": "O=C(O)CCNC1=C(Cl)C(=O)c2ccccc2C1=O",
    "inhibition": "inactive"
  },
  {
    "COMPOUND_STRUCTURE_STRING": "COC(=O)c1ccc(NC2=C(OC)C(=O)c3ccccc3C2=O)cc1",
    "inhibition": "inactive"
  },
  {
    "COMPOUND_STRUCTURE_STRING": "O=C1C(Cl)=C(NCCCN2CCOCC2)C(=O)c2ccccc21",
    "inhibition": "inactive"
  },
  {
    "COMPOUND_STRUCTURE_STRING": "O=C(O)CCCCCNC1=C(Cl)C(=O)c2ccccc2C1=O",
    "inhibition": "inactive"
  },
  {
    "COMPOUND_STRUCTURE_STRING": "COC(=O)c1ccc(NC2=C(Cl)C(=O)c3ccccc3C2=O)cc1",
    "inhibition": "inactive"
  }
]

Memo: COC(=O)c1ccc(NC2=C(N3CCCCC3)C(=O)c3ccccc3C2=O)cc1 , reported inhibition: inactive

Memo: O=C(O)CNC1=C(Cl)C(=O)c2ccccc2C1=O , reported inhibition: inactive

Memo: O=C(O)c1ccc(NC2=C(Cl)C(=O)c3ccccc3C2=O)cc1 , reported inhibition: inactive

Memo: O=C(O)CCCNC1=C(Cl)C(=O)c2ccccc2C1=O , reported inhibition: inactive

Memo: O=C1C(Cl)=C(NCCCO)C(=O)c2ccccc21 , reported inhibition: inactive

Memo: O=C1C(Cl)=C(NCCO)C(=O)c2ccccc21 , reported inhibition: inactive

====

# SYSTEM_UNDER_TEST: UniProtKB P30304
# Sequence (P30304 whole entry): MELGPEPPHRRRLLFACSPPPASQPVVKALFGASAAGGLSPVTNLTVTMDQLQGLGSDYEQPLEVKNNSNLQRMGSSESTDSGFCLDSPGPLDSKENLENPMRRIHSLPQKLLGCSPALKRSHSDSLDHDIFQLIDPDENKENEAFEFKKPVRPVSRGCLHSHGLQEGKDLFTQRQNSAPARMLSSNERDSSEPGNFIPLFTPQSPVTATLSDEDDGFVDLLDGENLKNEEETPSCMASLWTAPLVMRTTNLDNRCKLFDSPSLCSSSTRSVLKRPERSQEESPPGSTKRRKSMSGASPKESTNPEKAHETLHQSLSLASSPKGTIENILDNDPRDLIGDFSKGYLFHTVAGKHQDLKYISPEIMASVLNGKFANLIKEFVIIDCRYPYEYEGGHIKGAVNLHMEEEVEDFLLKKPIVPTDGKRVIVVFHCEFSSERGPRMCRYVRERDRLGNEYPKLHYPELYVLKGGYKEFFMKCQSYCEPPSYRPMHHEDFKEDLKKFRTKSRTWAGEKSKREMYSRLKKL
Label scheme, based on IC50: range 1 = under 6 µM, range 2 = from 6 µM up to 20 µM, range 3 = 20 µM and over

Prompt line: Pick a category. Item: O=C(O)CCCCCNC1=C(Cl)C(=O)c2ccccc2C1=O
Response line: range 3

Prompt line: Pick a category. Item: CC1=C(SCCC(=O)O)C(=O)c2ccccc2C1=O
Response line: range 1

Prompt line: Pick a category. Item: CC1=C(SC(C)C)C(=O)c2ccccc2C1=O
Response line: range 2

Prompt line: Pick a category. Item: CC(C)=CC[C@@H](O)C1=CC(=O)c2c(O)ccc(O)c2C1=O
Response line: range 1

Prompt line: Pick a category. Item: COC1=CC(=O)c2ccccc2C1=O
Response line: range 1

Prompt line: Pick a category. Item: COC1=C(C)C(=O)c2ccccc2C1=O
Response line: range 3

Prompt line: Pick a category. Item: O=C1C(Cl)=C(NCCCO)C(=O)c2ccccc21
Response line: range 3

Prompt line: Pick a category. Item: O=C(O)c1ccc(NC2=C(Cl)C(=O)c3ccccc3C2=O)cc1
Response line: range 1

Prompt line: Pick a category. Item: O=C(O)CSC1=CC(=O)c2ccccc2C1=O
Response line: range 1

Prompt line: Pick a category. Item: COc1ccc(OC)c2c1C(=O)C=C(SCCC(=O)O)C2=O
Response line: range 3

Prompt line: Pick a category. Item: COC1=C(OC)C(=O)c2ccccc2C1=O
Response line: range 2

Prompt line: Pick a category. Item: CC(C)=CCC1=C(O)C(=O)c2ccccc2C1=O
Response line: range 3

Prompt line: Pick a category. Item: O=C(O)c1cccc(NC2=C(Cl)C(=O)c3ccccc3C2=O)c1
Response line: range 3

Prompt line: Pick a category. Item: O=C(O)CNC1=C(Cl)C(=O)c2ccccc2C1=O
Response line: range 3

Prompt line: Pick a category. Item: O=C(O)CCNC1=C(Cl)C(=O)c2ccccc2C1=O
Response line: range 3

Prompt line: Pick a category. Item: COC(=O)c1ccc(NC2=C(N3CCCCC3)C(=O)c3ccccc3C2=O)cc1
Response line: range 2

Prompt line: Pick a category. Item: CC(SC1=CC(=O)c2ccccc2C1=O)C(=O)O (stereo unspecified)
Response line: range 1

Prompt line: Pick a category. Item: O=C1C(O)=C(CN(CCCl)CCCl)C(=O)c2ccccc21
Response line: range 2

Prompt line: Pick a category. Item: O=C(O)CCSC1=CC(=O)c2ccccc2C1=O
Response line: range 1

Prompt line: Pick a category. Item: CC1=C(SCCO)C(=O)c2ccccc2C1=O
Response line: range 1

Prompt line: Pick a category. Item: CC1=CC(=O)c2ccccc2C1=O
Response line: range 2

Prompt line: Pick a category. Item: COCCSC1=C(C)C(=O)c2ccccc2C1=O
Response line: range 1

Prompt line: Pick a category. Item: CCSC1=C(C)C(=O)c2ccccc2C1=O
Response line: range 1

Prompt line: Pick a category. Item: O=C(O)CCCNC1=C(Cl)C(=O)c2ccccc2C1=O
Response line: range 2

Prompt line: Pick a category. Item: O=C1C(Cl)=C(NCCO)C(=O)c2ccccc21
Response line: range 3
